SYSTEM NAME: T1, human Chemokine like receptor 1 (human, UniProt Q99788 1-373)
T1 sequence (looked up): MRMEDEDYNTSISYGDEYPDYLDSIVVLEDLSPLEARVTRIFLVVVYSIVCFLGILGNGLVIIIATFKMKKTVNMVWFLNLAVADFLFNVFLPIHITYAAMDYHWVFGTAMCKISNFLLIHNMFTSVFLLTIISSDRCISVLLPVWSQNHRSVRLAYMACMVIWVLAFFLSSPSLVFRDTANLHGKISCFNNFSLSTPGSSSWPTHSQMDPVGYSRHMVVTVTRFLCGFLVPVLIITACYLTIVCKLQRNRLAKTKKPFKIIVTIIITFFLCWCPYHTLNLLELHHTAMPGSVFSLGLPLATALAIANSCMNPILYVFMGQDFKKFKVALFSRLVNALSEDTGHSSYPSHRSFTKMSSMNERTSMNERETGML
PROTOCOL: cell-based or functional assay
Square brackets hold non-standard residues; d marks the D form. Ends that are not written are not given here. * marks the point of attachment. Pro(trans-4-Ph) = O=C(O)[C@@H]1C[C@@H](c2ccccc2)CN1; PEG8 = NCCOCCOCCOCCOCCOCCOCCOCCOCCC(=O)O; Phe(4-Me) = Cc1ccc(C[C@H](N)C(=O)O)cc1; 2Nal = N[C@@H](Cc1ccc2ccccc2c1)C(=O)O; dNMeY = CN[C@H](Cc1ccc(O)cc1)C(=O)O; Palmitoyl = CCCCCCCCCCCCCCCC(=O)*; Tic = O=C(O)[C@@H]1Cc2ccccc2CN1; NMeL = CN[C@@H](CC(C)C)C(=O)O; NMeS = CN[C@@H](CO)C(=O)O; Thz = O=C(O)[C@@H]1CSCN1; βAla = NCCC(=O)O
ASSAY ENDPOINT: EC50 (µM), activation of Tango CMKLR1-bla U2OS cells

# BINDER, UNIT TAG, CENSORING SIGN, TEST VALUE
rows = [
    ("[dY]FLP[dS]QF[dA][S‑Pip]S-OH [YW-90]", "µM", ">", 50),
    ("[dY][Phe(4-Me)][NMeL]P[dS]QF[dA][Tic]S [YW-202]", "µM", "=", 0.0064),
    ("[dNMeY]F[NMeL][Thz][dS]Q[2Nal][dA][Tic][NMeS]-OH (N-terminus assumed; SMILES CN[C@H](Cc1ccc(O)cc1)C(=O)N[C@@H](Cc1ccccc1)C(=O)N(C)[C@@H](CC(C)C)C(=O)N1CSC[C@H]1C(=O)N[C@H](CO)C(=O)N[C@@H](CCC(N)=O)C(=O)N[C@@H](Cc1ccc2ccccc2c1)C(=O)N[C@H](C)C(=O)N1Cc2ccccc2C[C@H]1C(=O)N(C)[C@@H](CO)C(=O)O) [YW-125]", "µM", "=", 0.0006),
    ("{2‑cyclohexylacetyl}-[dY]F[NMeL]P[dS]QF[dA][Tic]S [YW-194]", "µM", "=", 0.0012),
    ("{Palmitoyl-PEG8}-[βAla][βAla][dNMeY]F[NMeL][Pro(trans-4-Ph)][dS]Q[2Nal][dA][Tic]S [YW-217]", "µM", "=", 0.0033),
]
